biological target: HLA-A*02:01; experiment: IEDB peptide-MHC binding, purified MHC/competitive/radioactivity; bounds were set here for any values at or beyond the usual limits of such assays; settings: source organism: Human alphaherpesvirus 1
attribute.measured: IC50 (nM)
Field format: number, assumed nM, no unit text.

Inquiry: Report IC50 on HLA-A*02:01 for this entry: FVGVIILGV
Reply text: 5.9

Inquiry: Answer with IC50 of RLPLYEALV measured for HLA-A*02:01.
Reply text: 95

Inquiry: Jot down IC50 (HLA-A*02:01) of SMDDDTYVA .
Reply text: 546

Inquiry: # lookup: HLA-A*02:01 IC50, key = CLLCNLLLV
Reply text: 60

Inquiry: Tell me its IC50 on HLA-A*02:01: MLWTTDKHV
Reply text: 1290

Inquiry: Determine reported IC50 for LLLNTTLTV ; test system: HLA-A*02:01.
Reply text: 2.9

Inquiry: Under HLA-A*02:01, report IC50 for TLLELVVSV
Reply text: 1.8

Inquiry: # return IC50 of ILDAARPAV (system: HLA-A*02:01)
Reply text: 99

Inquiry: Look up and report measured IC50 (HLA-A*02:01) for the following sequence: ALLPAPITL
Reply text: 132

Inquiry: Using HLA-A*02:01 as the test system, report measured IC50 of GLVLVWYTV .
Reply text: 66

Inquiry: Write down the reported IC50 (system: HLA-A*02:01) of LLDDLGFSA
Reply text: 46

Inquiry: Fill in IC50 for LLIDTGVYA tested with HLA-A*02:01.
Reply text: 94

Inquiry: Answer briefly: IC50 recorded on HLA-A*02:01 for YLREYVTRL
Reply text: 115

Inquiry: Specify IC50 for KIFRCLTVL , system HLA-A*02:01.
Reply text: 159

Inquiry: For HLA-A*02:01, give IC50 of the listed sequence: RLLEVMDSL
Reply text: 144

Inquiry: Write down the reported IC50 (system: HLA-A*02:01) of VLTEPLCQV
Reply text: 71

Inquiry: GET IC50 | system: HLA-A*02:01 | item: KSMDDDTYV
Reply text: 689

Inquiry: Report value only: IC50, HLA-A*02:01, ALHTALATV
Reply text: 16

Inquiry: Please report the measured IC50 for LLGQVQTYV tested on HLA-A*02:01.
Reply text: 18

Inquiry: For HLA-A*02:01, give the measured IC50 of the entry RIQQYMFFM
Reply text: 81

Inquiry: Give HLA-A*02:01 IC50 for the following sequence: LLAFDTQPV
Reply text: 9.3

Hey, just so you know, these numbers are from the Immune Epitope Database (IEDB).
